# assayProtocol: Mouse blood levels after intramuscular administration
# Type: in vivo
# details: 20 minutes after IM 40 mg/kg, average of 6 mice, read-out: Mouse blood level
Mark each entry true (1) if its concentration at 20 min sits below 30 µg/mL, and false (0) for all others.

Observe how each entry below is paired with its result.
{"molecule": "NCCCC1=C(C(=O)O)N2C(=O)CC2S1 (stereo not shown) [Example 22, Sodium 2-Aminopropylpenem-3-carboxylate]", "qualitativeLabel": "false (0)"}
{"molecule": "NCCCCCC1=C(C(=O)O)N2C(=O)C[C@H]2S1 [Example 87]", "qualitativeLabel": "false (0)"}
{"molecule": "N[C@H]1C[C@@H](C2=C(C(=O)O)N3C(=O)C[C@H]3S2)C1 [Example 78]", "qualitativeLabel": "true (1)"}

Q) concentration at 20 min strictly < 30 µg/mL for this molecule? NCCOCC1=C(C(=O)O)N2C(=O)CC2S1 (stereo not shown) [Example 86]
A) true (1)

Q) concentration at 20 min strictly < 30 µg/mL for this molecule? NCCC1=C(C(=O)O)N2C(=O)CC2S1 (stereo not shown) [Example 24, 2-Aminoethylpenem-3-carboxylic Acid]
A) false (0)

Q) concentration at 20 min strictly < 30 µg/mL for this molecule? C[C@@H](O)[C@H]1C(=O)N2C(C(=O)O)=C([C@H]3C[C@H](N)C3)S[C@H]12 (relative stereo) [Example 65]
A) false (0)

====

What follows is a collection of MIC values obtained with Ser. marcescens A-20019.
// return numeric value only (unit: µg/mL, not printed)

Observe how each entry below is paired with its result.
{"compound": "N=C(Cc1ccccc1)NCC1=C(C(=O)O)N2C(=O)CC2S1 (centres unmarked)", "testedTarget": "Ser. marcescens A-20019", "MIC / µg/mL": 63}
{"compound": "CC1(CC2=C(C(=O)O)N3C(=O)CC3S2)OCCO1 (centres unmarked)", "testedTarget": "Ser. marcescens A-20019", "MIC / µg/mL": 63}
{"compound": "O=C(O)C1=CSC2CC(=O)N12 (centres unmarked)", "testedTarget": "Ser. marcescens A-20019", "MIC / µg/mL": 16}
{"compound": "O=C(O)C1=C(C2CC2)SC2CC(=O)N12 (centres unmarked)", "testedTarget": "Ser. marcescens A-20019", "MIC / µg/mL": 8}
{"compound": "O=C(O)C1=C(CCCCN2C(=O)c3ccccc3C2=O)SC2CC(=O)N12 (centres unmarked)", "testedTarget": "Ser. marcescens A-20019", "MIC / µg/mL": 16}
{"compound": "Nc1ccccc1CC1=C(C(=O)O)N2C(=O)CC2S1 (centres unmarked)", "testedTarget": "Ser. marcescens A-20019", "MIC / µg/mL": 125}
{"compound": "NCCC1=C(C(=O)O)N2C(=O)CC2S1 (centres unmarked)", "testedTarget": "Ser. marcescens A-20019", "MIC / µg/mL": 63}
{"compound": "CC1=C(C(=O)O)N2C(=O)[C@@H]([C@@H](C)O)[C@H]2S1 (relative stereo)", "testedTarget": "Ser. marcescens A-20019", "MIC / µg/mL": 32}

Q) What value of MIC on Ser. marcescens A-20019 does NC1CC1C1=C(C(=O)O)N2C(=O)CC2S1 (centres unmarked) have?
A) 16

Q) What value of MIC on Ser. marcescens A-20019 does CC1(C)OCC(C(N)C2=C(C(=O)O)N3C(=O)CC3S2)O1 (centres unmarked) have?
A) 63
